All values here come from PubChem BioAssay.

- protocolDescription: small-molecule microarray binders of probe aCHRDL2, primary screen, biochemical, biotinylated probe, 635/667 nm fluorescence (AID 1100)
- testParameters: higher = more signal
Label rule, in plain words: composite z-score of -0.3 and up is Y, under -0.3 is N.

Here are 3 molecules together with their reported answers.
Would you say O=C1C2C=CC(C(O)c3ccc([N+](=O)[O-])cc3)N(Nc3ccccc3)C2C(=O)N1c1ccccc1 (stereo not given) shows composite z-score at minimum -0.3? Y

Now this one: C=CC[C@]1(C(=O)NCc2ccccc2)COC(c2ccc(OCCCO)cc2)=N1 Y

Now this one: CC(C)[Si](C#CCCCC#N)(O[C@H](c1ccccc1)c1cn([C@H](C)c2ccccc2)nn1)C(C)C N

# evaluate next
Would you say CC(C)C[C@@H]1NC(=O)[C@H]2C[C@@H](C(=O)NCCCCCCNC(=O)CS)[C@@H](c3ccc(O)cc3)N2C1=O shows composite z-score at minimum -0.3? Y
